This collection of values is drawn from ChEMBL document CHEMBL1641403.

- assay_procedure: Metabolic stability of the compound in human HT-29 cells
- Type: ADME, cell-based
- assay_conditions: read-out: Stability (converted)
test_readout: half-life (h)
# output: bare number, implied unit h

Write down half-life measured for item CC[C@H](C)[C@H]1NC(=O)[C@@H](CCC(N)=O)NC(=O)CNC(=O)[C@H](Cc2ccc(O)cc2)/N=C/[C@H](CC(C)C)NC(=O)[C@H](C(C)C)NC(=O)[C@H](CO)NC1=O
2
